// provenance: ChEMBL document CHEMBL2203134

# Assay Text: Drug metabolism in human liver microsomes at 15 uM after 30 mins
# Format: ADME, Microsome
# Run Conditions: read-out: Drug metabolism
# strict inequality: metabolised at 0.5 h, 15 µM < 30% yields rule met, everything else yields rule not met

Report whether reported metabolised at 0.5 h, 15 µM is lower than 30% (strictly) for COc1cccc(C(=O)NC2CC3CCC(C2)N3c2ccc(C(=O)NCc3ccccc3)cn2)c1C (stereo not given)
rule not met

Consider COc1cccc(C(=O)NC2CC3CCC(C2)N3c2ccc(C(=O)N[C@@H](C)c3ccccc3)cn2)c1C (stereo not given in full) . Does its metabolised at 0.5 h, 15 µM lie strictly below 30%?
rule not met

Report whether reported metabolised at 0.5 h, 15 µM is lower than 30% (strictly) for COc1cccc(C(=O)NC2CC3CCC(C2)N3c2ccc(C(=O)NCc3ccc(N4CCN(C)CC4)cc3)cn2)c1C (stereo not given)
rule met

State whether 30% exceeds metabolised at 0.5 h, 15 µM recorded for COc1cccc(C(=O)NC2CC3CCC(C2)N3c2ccc(C(N)=O)cn2)c1C (stereo not given) .
rule met

Decide: metabolised at 0.5 h, 15 µM of COc1cccc(C(=O)NC2CC3CCC(C2)N3c2ccc(C(=O)N[C@@H](C)c3ccc(N4CCN(C)CC4)cc3)cn2)c1C (stereo not given in full) strictly below 30%?
rule not met
